# assay.target: α3β4 nAChR (Rattus norvegicus, UniProt P04757+P12392)
# Sequence (P04757 26-499): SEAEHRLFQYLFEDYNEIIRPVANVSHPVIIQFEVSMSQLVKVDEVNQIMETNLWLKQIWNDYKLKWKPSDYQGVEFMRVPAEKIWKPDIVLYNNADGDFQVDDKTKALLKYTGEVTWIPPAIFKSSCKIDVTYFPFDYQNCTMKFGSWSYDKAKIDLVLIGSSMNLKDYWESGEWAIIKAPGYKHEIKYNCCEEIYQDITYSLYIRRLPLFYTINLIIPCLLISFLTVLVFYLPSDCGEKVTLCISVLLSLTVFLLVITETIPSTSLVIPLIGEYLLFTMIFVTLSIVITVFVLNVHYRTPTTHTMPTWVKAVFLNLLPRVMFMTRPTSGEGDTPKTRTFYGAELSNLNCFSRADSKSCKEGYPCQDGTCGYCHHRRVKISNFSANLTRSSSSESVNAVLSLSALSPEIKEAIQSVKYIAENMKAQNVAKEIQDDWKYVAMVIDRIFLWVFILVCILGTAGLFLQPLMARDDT
# Sequence (P12392 21-495): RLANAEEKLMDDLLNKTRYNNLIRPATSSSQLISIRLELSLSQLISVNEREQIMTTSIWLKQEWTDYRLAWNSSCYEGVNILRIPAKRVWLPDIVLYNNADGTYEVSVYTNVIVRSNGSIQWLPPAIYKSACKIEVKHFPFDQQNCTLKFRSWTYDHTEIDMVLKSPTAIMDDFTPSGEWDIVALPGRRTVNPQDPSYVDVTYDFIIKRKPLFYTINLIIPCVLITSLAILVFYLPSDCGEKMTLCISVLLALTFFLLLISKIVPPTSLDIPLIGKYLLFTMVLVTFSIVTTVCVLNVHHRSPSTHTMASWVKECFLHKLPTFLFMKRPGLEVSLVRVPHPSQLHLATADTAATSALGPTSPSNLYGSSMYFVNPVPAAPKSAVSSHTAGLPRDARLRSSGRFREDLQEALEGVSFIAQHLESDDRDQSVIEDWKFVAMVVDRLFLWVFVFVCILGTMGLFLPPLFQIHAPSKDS
# experiment: two-electrode voltage clamp, Xenopus oocytes, peak current
endpoint.name: EC50 (µM)
One number for each entry, in µM.

Request the reported EC50 associated with C[N+]1(C)CCN(c2ccccc2)CC1
58

----------
# assay.target: α3β2 nAChR (Rattus norvegicus, UniProt P04757+P12390)
# Sequence (P04757 26-499): as the sequence (P04757 26-499) above
# Sequence (P12390 25-500): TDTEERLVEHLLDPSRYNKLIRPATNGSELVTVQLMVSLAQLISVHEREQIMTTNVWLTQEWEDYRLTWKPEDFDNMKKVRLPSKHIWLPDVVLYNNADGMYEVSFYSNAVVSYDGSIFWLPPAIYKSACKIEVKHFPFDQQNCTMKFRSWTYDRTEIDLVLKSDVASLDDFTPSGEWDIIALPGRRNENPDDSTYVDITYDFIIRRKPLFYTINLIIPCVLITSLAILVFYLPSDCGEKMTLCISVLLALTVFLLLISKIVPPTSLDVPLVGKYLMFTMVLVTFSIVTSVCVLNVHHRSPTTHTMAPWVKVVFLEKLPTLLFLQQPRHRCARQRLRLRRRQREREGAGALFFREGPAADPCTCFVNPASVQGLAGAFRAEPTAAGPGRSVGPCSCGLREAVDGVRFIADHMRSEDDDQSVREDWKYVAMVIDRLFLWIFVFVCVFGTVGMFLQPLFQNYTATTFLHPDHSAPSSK
# experiment: two-electrode voltage clamp, Xenopus oocytes, peak current
endpoint.name: pEC50
Numbers only, as −log10 of the molar value.

What reported pEC50 corresponds to C[N+]1(C)CCN(c2ccccc2)CC1 [DMPP] on α3β2 nAChR (Rattus norvegicus, UniProt P04757+P12390)?
4.26
